- ASSAY TEXT: Inhibition of synthetic amyloid beta42 oligomer formation by Western blot
Structures can show the parent of a compound that is named as a salt. Calls of active or inactive are those of the source. The rule behind the calls is not given here.
Outcome codes: active, inactive

- CN(C)[C@@H]1C(O)=C(C(=O)NCN2CCCC2)C(=O)[C@@]2(O)C(O)=C3C(=O)c4c(O)cccc4[C@@](C)(O)[C@H]3C[C@@H]12 [ROLITETRACYCLINE]: inactive
- COc1cccc2c1C(=O)c1c(O)c3c(c(O)c1C2=O)C[C@@](O)(C(C)=O)C[C@@H]3O[C@H]1C[C@H](N)[C@H](O)[C@H](C)O1 [DAUNORUBICIN HYDROCHLORIDE]: inactive
- C1CCSC1 [TETRAHYDROTHIOPHENE]: active
- O=c1c(O)c(-c2cc(O)c(O)c(O)c2)oc2cc(O)cc(O)c12 [MYRICETIN]: active
- O=C1C=Cc2ccccc2C1=O [1,2-NAPHTHOQUINONE]: inactive
- CO[C@H]1/C=C/O[C@@]2(C)Oc3c(C)c(O)c4c(O)c(cc(O)c4c3C2=O)NC(=O)/C(C)=C\C=C\[C@H](C)[C@H](O)[C@@H](C)[C@@H](O)[C@@H](C)[C@H](OC(C)=O)[C@@H]1C [RIFAMYCIN]: inactive
- CC(Cc1ccc(O)c(O)c1)C(C)Cc1ccc(O)c(O)c1 (centres undefined) [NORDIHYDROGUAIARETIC ACID]: inactive
- COc1cccc(C=O)c1O: inactive
- CNc1ccc2nc3ccc(N)cc3[s+]c2c1 [AZURE C]: inactive

---

- ASSAY TEXT: Inhibition of synthetic amyloid beta42 oligomer formation by Western blot
Calls of active or inactive are those of the source. The rule behind the calls is not given here.
Outcome codes: class 1 for active, class 0 for inactive

- Nc1c(/N=N/c2ccc(-c3ccc(/N=N/c4cc(S(=O)(=O)O)c5ccccc5c4N)cc3)cc2)cc(S(=O)(=O)O)c2ccccc12: class 0
- O=c1cc2oc3cc(O)c(-c4ccc(O)cc4O)cc3nc-2cc1-c1ccc(O)cc1O: class 0
- C=C1c2c(Cl)ccc(O)c2C(=O)C2=C(O)[C@]3(O)C(=O)C(C(N)=O)=C(O)[C@@H](N(C)C)[C@@H]3[C@@H](O)[C@H]12.O=C(O)c1cc(S(=O)(=O)O)ccc1O [MECLOCYCLINE SULFOSALICYLATE]: class 0
- COc1cc(-c2ccc(/N=N/c3ccc4c(S(=O)(=O)O)cc(S(=O)(=O)O)c(N)c4c3O)c(OC)c2)ccc1/N=N/c1ccc2c(S(=O)(=O)O)cc(S(=O)(=O)O)c(N)c2c1O [CHICAGO SKY BLUE SODIUM]: class 0
- O=C1C=CC(=O)c2c(O)cccc21: class 1
- CCN(CCO)c1ccc(/N=N/c2sc3cc(OC)ccc3[n+]2C)cc1: class 0
- Cc1ccc2ccc3ccc(C)nc3c2n1: class 0
